tested on: mPer2Luc MEF; test: PER2::LUC luminescence relative to vehicle control (fold of vehicle); higher = higher PER2::LUC reporter signal; details: time after treatment: 30-hour; concentration: 3.33μM
value type: PER2::LUC luminescence
Numbers only.

# batch size: 5; output PER2::LUC luminescence per entry
1. Cc1ccc2nc(NCCN)c3ncc(C)n3c2c1
2. O=C(/C=C/c1cccnc1)NCCCCC1CCN(C(=O)c2ccccc2)CC1 [FK866]
3. C/C(=C\C(=O)Nc1ccccc1C(=O)O)c1ccc2ccccc2c1 [BIBR 1532]
4. Cc1ccc(NC(=O)c2cccc(N(C)C)c2)cc1NC(=O)c1ccc(O)cc1
5. CN1CCN(c2ccc3nc(-c4c(N)c5c(F)cccc5[nH]c4=O)[nH]c3c2)CC1 [Dovitinib (TKI-258)]

output:
1. 0.594
2. 0.595
3. 0.98
4. 1.01
5. 0.609
